# Tested on: Trypanosoma brucei
# assay.explanation: In vitro growth Inhibitory activity against K269 Strain of Trypanosoma brucei.
# Format: functional, organism-based
metric: IC50 (µM)
Express the result in µM but write the number alone.

Input: # get_value(readout='IC50', item= COc1cccc(CNCCCNCCCCCCCNCCCNCc2cccc(OC)c2)c1 )
Output: 16.5

###

# tgt: Diamine acetyltransferase 1 (Homo sapiens)
# Sequence (P21673 whole entry): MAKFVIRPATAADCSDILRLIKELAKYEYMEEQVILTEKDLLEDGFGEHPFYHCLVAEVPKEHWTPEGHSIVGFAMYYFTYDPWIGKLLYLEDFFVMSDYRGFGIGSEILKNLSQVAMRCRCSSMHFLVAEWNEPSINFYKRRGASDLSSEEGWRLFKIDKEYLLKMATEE
# assay.explanation: Effect of 10 uM on spermine/spermidine-N-acetyltransferase (SSAT) induction in non-SCLC cells
# Assay type: cell-based
Here the recorded Induction is given for each entry.

Consider the following illustrative entries.
{"structure": "CCNCCCNCCCNCCCNCC1CC1", "Induction": "> 500"}
{"structure": "C(CCCNCCCNCC1CCCCCC1)CCCNCCCNCC1CCCCCC1", "Induction": 0}

# evaluate next
Input: # get_value(readout='Induction', item= CCNCCCNCCCNCCCNCC1CCC1 )
Output: > 500

###

# tgt: UniProtKB P21673
# assay.explanation: Effect of 10 uM on spermine/spermidine-N-acetyltransferase (SSAT) induction in non-SCLC cells
# Format: cell-based
metric: Induction

Consider the following illustrative entries.
{"compound": "CCNCCCNCCCNCCCNCC1CCCCCC1", "reported": 0}
{"compound": "C#CCNCCCNCCCNCCCNCC", "reported": "> 500"}
{"compound": "CCNCCCNCCCNC1CCCCCC1", "reported": "> 50"}
{"compound": "CCNCCCNCCCNCC1CCCCCC1", "reported": "> 500"}

Input: # get_value(readout='Induction', item= CCNCCCNCCCNCCCO )
Output: > 500

Input: # get_value(readout='Induction', item= CCNCCCNCCCNCCCNCC1CCCCC1 )
Output: < 50

Input: # get_value(readout='Induction', item= CCNCCCNCCCNCCCNCC [BIS(ETHYL)NORSPERMINE] )
Output: > 500

Input: # get_value(readout='Induction', item= CCNCCCNCCCNCCCNCC1CCCC1 )
Output: > 500

Input: # get_value(readout='Induction', item= CCNCCCNCCCN1CCCCCC1 )
Output: < 50

Input: # get_value(readout='Induction', item= CCNCCCNCCCNCCCN1CCCCCC1 )
Output: > 500

Input: # get_value(readout='Induction', item= CCNCCCNCCCNCCCNCC1CCC(Br)CC1 (stereo not given) )
Output: < 50

Input: # get_value(readout='Induction', item= CCNCCCNCCCNCCCNC1CCCCCC1 )
Output: > 500

Input: # get_value(readout='Induction', item= CCNCCCNCCCCCCCNCCCNCC1CCCCCC1 )
Output: 0

Input: # get_value(readout='Induction', item= CCNCCCNCCCCNCCCNCC [BIS(ETHYL)SPERMINE] )
Output: > 500

Input: # get_value(readout='Induction', item= CCNCCCCNCCCNCC )
Output: > 50

###

# tgt: Ornithine decarboxylase (Homo sapiens)
# assay.explanation: Inhibition of ornithine decarboxylase (ODC)
# Set-up: concentration or dose not given beside the values
# condition.summary: concentration not given here
Here the recorded inhibition is given for each entry.

Consider the following illustrative entries.
{"molecule": "CCNCCCNCCCNCCCNCC1CCC1", "tgt": "Ornithine decarboxylase (Homo sapiens)", "metric": "inhibition", "reported": "> 50%"}
{"molecule": "CCNCCCCNCCCNCC", "tgt": "Ornithine decarboxylase (Homo sapiens)", "metric": "inhibition", "reported": "> 50%"}
{"molecule": "CCNCCCNCCCCCCCNCCCNCC1CCCCCC1", "tgt": "Ornithine decarboxylase (Homo sapiens)", "metric": "inhibition", "reported": "< 50%"}
{"molecule": "CCNCCCNCCCCNCCCNCC [BIS(ETHYL)SPERMINE]", "tgt": "Ornithine decarboxylase (Homo sapiens)", "metric": "inhibition", "reported": "> 50%"}
{"molecule": "CCNCCCNCCCNCCCNCC1CC1", "tgt": "Ornithine decarboxylase (Homo sapiens)", "metric": "inhibition", "reported": "> 50%"}
{"molecule": "CCNCCCNCCCNCCCNCC [BIS(ETHYL)NORSPERMINE]", "tgt": "Ornithine decarboxylase (Homo sapiens)", "metric": "inhibition", "reported": "> 50%"}

# evaluate next
Input: # get_value(readout='inhibition', item= CCNCCCNCCCNCCCNCC1CCC(Br)CC1 (stereo not drawn) )
Output: < 50%

###

Here the recorded inhibition is given for each entry.
# tgt: S-adenosylmethionine decarboxylase (Homo sapiens)
# assay.explanation: Inhibition of Inhibition of human form of S-adenosyl-methionine decarboxylase enzyme (AdoMet-DC)
# Design: concentration or dose not given beside the values
# condition.summary: concentration not given here

{"molecule": "CCNCCCNCCCNCCCO", "inhibition": "< 50%"}

# evaluate next
Input: # get_value(readout='inhibition', item= CCNCCCCNCCCNCC )
Output: < 50%

###

# tgt: S-adenosylmethionine decarboxylase proenzyme (Rattus norvegicus)
# Sequence (P17708 whole entry): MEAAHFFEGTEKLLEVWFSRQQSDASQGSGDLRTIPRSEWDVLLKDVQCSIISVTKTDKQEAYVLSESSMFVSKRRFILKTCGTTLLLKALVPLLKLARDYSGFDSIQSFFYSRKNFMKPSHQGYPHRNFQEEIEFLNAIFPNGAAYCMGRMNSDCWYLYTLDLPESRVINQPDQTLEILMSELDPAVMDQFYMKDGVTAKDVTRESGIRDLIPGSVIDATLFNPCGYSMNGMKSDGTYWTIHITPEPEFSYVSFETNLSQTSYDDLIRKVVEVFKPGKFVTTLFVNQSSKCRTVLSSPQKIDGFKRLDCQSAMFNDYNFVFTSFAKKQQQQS
metric: Ki (nM)
Express the result in nM but write the number alone.

Input: # get_value(readout='Ki', item= NC/C=C\NC[C@@H]1O[C@H](n2cnc3c(N)ncnc32)[C@@H](O)[C@H]1O )
Output: 560

###

# assay.explanation: Half-life period as determined by N-deethylation and stepwise removal of aminopropyl equivalents
# Type: ADME
metric: half-life (h)
Express the result in h but write the number alone.

Input: # get_value(readout='half-life', item= CCNCCCNCCCNCCCNCC [BIS(ETHYL)NORSPERMINE] )
Output: 1.22

###

# Tested on: Trypanosoma brucei
# assay.explanation: In vitro growth Inhibitory activity against K243 As-10-3 Strain of Trypanosoma brucei
# Assay type: functional, organism-based
metric: IC50 (µM)
Express the result in µM but write the number alone.

Input: # get_value(readout='IC50', item= COc1cccc(CNCCCNCCCCCCCNCCCNCc2cccc(OC)c2)c1 )
Output: 5.5

###

# assay.explanation: Half-life period in liver tissues
# Assay type: ADME, tissue-based
metric: half-life (days)
Express the result in days but write the number alone.

Input: # get_value(readout='half-life', item= CCNCCCCNCCCCNCCCCNCC [DIETHYLHOMOSPERMINE] )
Output: 15.4

###

# tgt: Ornithine decarboxylase (Homo sapiens)
# assay.explanation: Inhibition of ornithine decarboxylase (ODC)
# Design: concentration or dose not given beside the values
# condition.summary: concentration not given here
Here the recorded inhibition is given for each entry.

{"structure": "CCNCCCNCCCNCCCNCC1CCCC1", "inhibition": "> 50%"}
{"structure": "CCNCCCNCCCNC1CCCCCC1", "inhibition": "< 50%"}
{"structure": "CCNCCCNCCCNCCCNCC1CCCCCC1", "inhibition": "< 50%"}
{"structure": "CCNCCCNCCCNCCCNCC1CCCCC1", "inhibition": "< 50%"}
{"structure": "C#CCNCCCNCCCNCCCNCC", "inhibition": "< 50%"}

# evaluate next
Input: # get_value(readout='inhibition', item= CCNCCCNCCCNCCCO )
Output: < 50%

###

# tgt: S-adenosylmethionine decarboxylase (Homo sapiens) (UniProt P17707)
# assay.explanation: Inhibition of Inhibition of human form of S-adenosyl-methionine decarboxylase enzyme (AdoMet-DC)
# Set-up: concentration or dose not given beside the values
# condition.summary: concentration not given here
Here the recorded inhibition is given for each entry.

Consider the following illustrative entries.
{"compound": "CCNCCCNCCCNCCCNCC1CCCCC1", "inhibition": "< 50%"}
{"compound": "CCNCCCNCCCNCCCNCC1CCC(Br)CC1 (configuration not stated)", "inhibition": "< 50%"}
{"compound": "CCNCCCNCCCCCCCNCCCNCC1CCCCCC1", "inhibition": "< 50%"}

Input: # get_value(readout='inhibition', item= CCNCCCNCCCNCCCNCC [BIS(ETHYL)NORSPERMINE] )
Output: > 50%

Input: # get_value(readout='inhibition', item= CCNCCCNCCCNCCCNCC1CCCC1 )
Output: > 50%

Input: # get_value(readout='inhibition', item= CCNCCCNCCCNCCCNCC1CCCCCC1 )
Output: < 50%

Input: # get_value(readout='inhibition', item= CCNCCCNCCCCNCCCNCC [BIS(ETHYL)SPERMINE] )
Output: > 50%
